Task for the reader: assign each of the following compounds its reported MIC.
Tested on: Escherichia coli
protocol-description: Minimum inhibitory concentration against Escherichia coli DC2
Type: functional

| compound | MIC |
| --- | --- |
| C[C@H]1COc2c(N3CCN(C)CC3)ccc3c(=O)c(C(=O)O)cn1c23 | 16 µg/mL |
| C[C@H]1COc2c(N3CCC[C@H](N)C3)ccc3c(=O)c(C(=O)O)cn1c23 | 2 µg/mL |
| C[C@H]1COc2c(N3CCN(C)CC3)c(F)cc3c(=O)c(C(=O)O)cn1c23.C[C@H]1COc2c(N3CCN(C)CC3)c(F)cc3c(=O)c(C(=O)O)cn1c23.O [LEVOFLOXACIN] | 0.25 µg/mL |
| C[C@H]1COc2c(N3CC[C@@H](C(C)(C)N)C3)ccc3c(=O)c(C(=O)O)cn1c23 | 0.125 µg/mL |

Next compound, please.
[Q] GET /values?readout=MIC&item= "C[C@H](N)[C@@H]1CCN(c2ccc3c(=O)c(C(=O)O)cn4c3c2OC[C@@H]4C)C1"
[A] 0.063 µg/mL

###

target-of-assay: DNA gyrase (Escherichia coli)
protocol-description: Inhibitory activity against quinolone resistant gyrase in Escherichia coli
I'd appreciate it if you could supply IC50 values for the items below.

Observe how each entry below is paired with its result.
| query-smiles | measurement-kind | assay-result |
| --- | --- | --- |
| C[C@H](N)[C@@H]1CCN(c2ccc3c(=O)c(C(=O)O)cn4c3c2OC[C@@H]4C)C1 | IC50 | 51.2 µg/mL |
| C[C@H]1COc2c(N3CCN(C)CC3)ccc3c(=O)c(C(=O)O)cn1c23 | IC50 | > 500 µg/mL |
| C[C@H]1COc2c(N3CC[C@@H](C(C)(C)N)C3)ccc3c(=O)c(C(=O)O)cn1c23 | IC50 | > 102 µg/mL |

Field: next compound
[Q] Quick check: IC50 of "C[C@H]1COc2c(N3CCC[C@H](N)C3)ccc3c(=O)c(C(=O)O)cn1c23" ?
[A] > 500 µg/mL

###

Please go through the items and note down their IC50.
target-of-assay: DNA topoisomerase II (Homo sapiens, UniProt P11388+Q02880)
protocol-description: Inhibitory activity against mammalian DNA topoisomerase II
Format: protein assay
Numbers only, in µg/mL.

I have 3 compounds here; please give me IC50 for each one.
1. C[C@H](N)[C@@H]1CCN(c2ccc3c(=O)c(C(=O)O)cn4c3c2OC[C@@H]4C)C1
2. C[C@H]1COc2c(N3CC[C@@H](C(C)(C)N)C3)ccc3c(=O)c(C(=O)O)cn1c23
3. C[C@H]1COc2c(N3CCN(C)CC3)ccc3c(=O)c(C(=O)O)cn1c23

[A]
1. 38
2. 150
3. 250

###

Field: MIC. Provide a value for each of the compounds that follow.
System: Staphylococcus aureus
protocol-description: Minimum inhibitory concentration against Staphylococcus aureus (MRCS; Methicillin resistant, ciprofloxacin sensitive) MI300
Type: functional
One number for each entry, in µg/mL.

| query-smiles | result-unit | MIC |
| --- | --- | --- |
| C[C@H]1COc2c(N3CCN(C)CC3)ccc3c(=O)c(C(=O)O)cn1c23 | µg/mL | 4 |

Items follow; give MIC for each.
1. C[C@H](N)[C@@H]1CCN(c2ccc3c(=O)c(C(=O)O)cn4c3c2OC[C@@H]4C)C1
2. C[C@H]1COc2c(N3CCN(C)CC3)c(F)cc3c(=O)c(C(=O)O)cn1c23.C[C@H]1COc2c(N3CCN(C)CC3)c(F)cc3c(=O)c(C(=O)O)cn1c23.O

[A]
1: 0.063; 2: 0.12

Answer for every listed entry: what is its MIC? The entries follow.
1. C[C@H]1COc2c(N3CC[C@@H](C(C)(C)N)C3)ccc3c(=O)c(C(=O)O)cn1c23
2. C[C@H]1COc2c(N3CCC[C@H](N)C3)ccc3c(=O)c(C(=O)O)cn1c23

[A]
0.063
2
